Give measured Toxicity Data, Average, Mean for each item. Keep answers brief.
# System: cells (nuclei count)
# Experimental Parameters: Average of Exp 1-3, n 9, 10 uM
Express the result in % but write the number alone.

Specify reported Toxicity Data, Average, Mean for the compound shown: CCN(CC)CCN(Cc1ccc(C)o1)Cc1cccs1 120.30

Specify reported Toxicity Data, Average, Mean for the compound shown: OC(COc1c(CNCCc2ccccc2F)cccc1N1CCNCC1)CN1CCCC1 (stereo not shown) 137.18

Specify reported Toxicity Data, Average, Mean for the compound shown: CCN(CC)CCN(Cc1ccccc1)Cc1ccc(C)o1 125.61

Specify reported Toxicity Data, Average, Mean for the compound shown: COc1ccc(CNCCc2ccccc2F)c(OCC(O)CN2CCN(C)CC2)c1 (racemic) [UMB18G] 114.41

Specify reported Toxicity Data, Average, Mean for the compound shown: Cc1ccc(CN(CCN(C)C)Cc2cc(C#CCO)cs2)s1 108.52

Specify reported Toxicity Data, Average, Mean for the compound shown: CCOc1cccc(CNCCc2ccccc2F)c1OCC(O)CN1CCN(C)CC1 (stereo not shown) 124.47

Specify reported Toxicity Data, Average, Mean for the compound shown: Cc1cc(CN(CCN(C)C)Cc2ccsc2)oc1C 120.18

* * *

# Test system: SARS2
# Assay type: cell-based, SARS-CoV-2
# Experimental Parameters: average of Exp 1-2 (SMW491, SMW492), n 4, 25 uM
Give measured Infection Data, Average, Mean for each item. Keep answers brief.
I'd appreciate it if you wrote the number followed by its unit.

Specify reported Infection Data, Average, Mean for the compound shown: CCN(CC)CCN(Cc1cc(C)c(Br)s1)Cc1cc(C)c(Br)s1 4.11%

Specify reported Infection Data, Average, Mean for the compound shown: CCN(CC)CCN(Cc1ccncc1)C(=O)c1cccs1 98.63%

Specify reported Infection Data, Average, Mean for the compound shown: CN(C)CCCN(Cc1cccs1)C(=O)c1cccs1 141.44%

Specify reported Infection Data, Average, Mean for the compound shown: COc1ccc(CNCCc2ccccc2F)c(OCC(O)CN2CCN(C)CC2)c1 (racemic) 2.93%

Specify reported Infection Data, Average, Mean for the compound shown: CCN(CC)CCN(Cc1ccccn1)C(=O)c1cccs1 102.13%

* * *

# Tested on: SARS2
# Format: cell-based, SARS-CoV-2
# Experimental Parameters: SARS2, 25 μM; 100=DMSO control
Give measured Screening data (Relative infection to DMSO controls) Average 25 μM for each item. Keep answers brief.
Please respond with just the number, no unit label.

Specify reported Screening data (Relative infection to DMSO controls) Average 25 μM for the molecule shown: Cc1ccc(CN(CCN(C)C)Cc2ccc(C)s2)o1 41.96

Specify reported Screening data (Relative infection to DMSO controls) Average 25 μM for the molecule shown: CCN(CC)CCN(Cc1ccc(C)o1)Cc1cccs1 35.04

Specify reported Screening data (Relative infection to DMSO controls) Average 25 μM for the molecule shown: COC(=O)c1csc(CN(CCN(C)C)Cc2cccs2)c1 32.72

Specify reported Screening data (Relative infection to DMSO controls) Average 25 μM for the molecule shown: COc1ccc(-c2[nH]ncc2C(=O)NCC2CCC2)cc1OC 105.10

Specify reported Screening data (Relative infection to DMSO controls) Average 25 μM for the molecule shown: CN(C)CCN(Cc1ccsc1)Cc1ccco1 135.12

Specify reported Screening data (Relative infection to DMSO controls) Average 25 μM for the molecule shown: COc1ccc(C2NC(=O)NC(C)=C2C(=O)NC2CCCCCC2)cc1OC (stereo not shown) 108.59

Specify reported Screening data (Relative infection to DMSO controls) Average 25 μM for the molecule shown: CCOc1cccc(CNCCc2ccccc2F)c1OCC(O)CN1CCN(C)CC1 (stereo not shown) 22.24

Specify reported Screening data (Relative infection to DMSO controls) Average 25 μM for the molecule shown: CCN(CC)CCN(Cc1cc(C)c(Br)s1)Cc1cc(C)c(Br)s1 4.11

Specify reported Screening data (Relative infection to DMSO controls) Average 25 μM for the molecule shown: COc1ccc(CNCCc2ccccc2F)c(OCC(O)CN2CCN(C)CC2)c1 (racemic) [UMB18G] 6.86

Specify reported Screening data (Relative infection to DMSO controls) Average 25 μM for the molecule shown: CN1CCN(CC(O)COc2c(CNCCc3ccccc3F)cccc2C2CCCCC2)CC1 (stereo not shown) 18.71
